Reference source for all entries: ChEMBL document CHEMBL1155491

Test system: HCT-116
Experiment: Antiproliferative activity against human HCT116 cells
Format: functional, cell-based
Attribute: IC50
Give just the number in µM; leave the unit off.

Some molecules with known IC50 results, for comparison:
CCCCc1nc2cc(C(=O)NC(=O)NCCCCCC(=O)NO)ccc2n1CCN1CCCC1 3.52
O=C(CCCCCNC(=O)NC(=O)c1ccc(NCCN2CCCC2)c([N+](=O)[O-])c1)NO 1.33
O=C(CCCCCNC(=O)NC(=O)c1ccc(Br)cc1)NO 0.6

# context switch: different molecule, same IC50
# input Dear colleague, I am looking for the recorded IC50 of the following molecule: O=C(CCCCCNC(=O)NC(=O)c1ccccc1)NO
# output 1.58

###

Target: Histone deacetylase 3 (Homo sapiens, UniProt O15379)
Sequence (O15379 whole entry): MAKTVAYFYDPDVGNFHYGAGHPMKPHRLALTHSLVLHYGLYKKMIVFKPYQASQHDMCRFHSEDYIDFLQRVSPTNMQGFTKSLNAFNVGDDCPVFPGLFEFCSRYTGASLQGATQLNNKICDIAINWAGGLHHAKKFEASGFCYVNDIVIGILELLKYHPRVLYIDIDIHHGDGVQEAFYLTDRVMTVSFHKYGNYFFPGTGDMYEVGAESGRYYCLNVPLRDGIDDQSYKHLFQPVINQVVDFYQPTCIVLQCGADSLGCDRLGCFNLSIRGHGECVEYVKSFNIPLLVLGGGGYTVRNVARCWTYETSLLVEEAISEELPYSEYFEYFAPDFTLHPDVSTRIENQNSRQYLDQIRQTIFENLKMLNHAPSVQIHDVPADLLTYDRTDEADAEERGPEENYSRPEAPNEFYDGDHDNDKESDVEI
endpoint-name: pKi
# pKi: negative log10 of molar concentration; output just the value

# input Dear colleague, I am looking for the recorded pKi of the following compound: O=C(CCCCCNC(=O)NC(=O)c1ccccc1)NO
# output 7.64

###

Attribute: half-life
Assay: Half life in rat liver microsome
Type: ADME
Details: liver microsomes

Some molecules with known half-life results, for comparison:
O=C(CCCCCNC(=O)NC(=O)c1ccc(Br)cc1)NO 53 min
O=C(CCCCCNC(=O)NC(=O)c1ccccc1)NO > 60 min

# input Dear colleague, I am looking for the recorded half-life of the following molecule: O=C(CCCCCCC(=O)Nc1ccccc1)NO
# output > 30 min

###

Test: Cmax in mouse plasma at 50 mg/kg, po
Format: ADME, organism-based
Set-up: dose 50 mg/kg, route oral
endpoint-name: Cmax (µM)
Give just the number in µM; leave the unit off.

# input Dear colleague, I am looking for the recorded Cmax of the following compound: O=C(CCCCCNC(=O)NC(=O)c1ccccc1)NO
# output 22.4

###

Here we list compounds with their recorded pKi when tested on Protein deacetylase HDAC6 (Homo sapiens, UniProt Q9UBN7).
Sequence (Q9UBN7 whole entry): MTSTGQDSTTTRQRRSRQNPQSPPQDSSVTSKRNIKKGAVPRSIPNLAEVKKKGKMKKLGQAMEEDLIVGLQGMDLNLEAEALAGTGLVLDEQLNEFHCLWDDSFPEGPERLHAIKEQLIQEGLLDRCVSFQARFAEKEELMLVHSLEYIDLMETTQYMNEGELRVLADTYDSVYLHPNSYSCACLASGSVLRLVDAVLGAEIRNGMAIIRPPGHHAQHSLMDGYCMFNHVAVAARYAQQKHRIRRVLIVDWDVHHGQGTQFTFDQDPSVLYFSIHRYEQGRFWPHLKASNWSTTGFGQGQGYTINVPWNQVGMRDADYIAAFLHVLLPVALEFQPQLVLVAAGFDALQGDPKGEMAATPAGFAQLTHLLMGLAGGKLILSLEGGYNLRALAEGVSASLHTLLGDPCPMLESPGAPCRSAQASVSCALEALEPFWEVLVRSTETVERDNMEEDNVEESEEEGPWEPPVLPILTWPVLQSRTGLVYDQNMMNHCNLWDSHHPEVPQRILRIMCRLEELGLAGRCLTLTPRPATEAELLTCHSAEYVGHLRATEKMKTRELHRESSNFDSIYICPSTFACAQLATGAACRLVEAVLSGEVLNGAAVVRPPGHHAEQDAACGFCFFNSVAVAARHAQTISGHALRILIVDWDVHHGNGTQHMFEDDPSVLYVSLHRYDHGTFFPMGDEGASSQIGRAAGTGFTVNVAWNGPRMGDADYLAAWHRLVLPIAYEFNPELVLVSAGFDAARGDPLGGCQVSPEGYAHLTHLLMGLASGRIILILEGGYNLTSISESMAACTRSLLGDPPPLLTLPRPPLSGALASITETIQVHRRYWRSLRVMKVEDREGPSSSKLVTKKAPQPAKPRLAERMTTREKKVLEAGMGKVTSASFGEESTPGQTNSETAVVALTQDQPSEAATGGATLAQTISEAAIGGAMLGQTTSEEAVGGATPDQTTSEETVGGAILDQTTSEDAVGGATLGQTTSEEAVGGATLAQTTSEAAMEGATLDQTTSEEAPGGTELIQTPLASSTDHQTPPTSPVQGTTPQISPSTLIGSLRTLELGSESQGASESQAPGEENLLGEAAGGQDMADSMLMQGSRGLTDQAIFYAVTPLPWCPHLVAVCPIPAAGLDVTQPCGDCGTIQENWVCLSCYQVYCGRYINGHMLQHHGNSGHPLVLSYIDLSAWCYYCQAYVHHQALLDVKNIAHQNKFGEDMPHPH
# pKi: negative log10 of molar concentration; output just the value

# input Dear colleague, I am looking for the recorded pKi of the following compound: O=C(CCCCCNC(=O)NC(=O)c1ccc(Br)cc1)NO
# output 8.10

# input And for O=C(CCCCCNC(=O)NC(=O)c1ccccc1)NO ?
# output 8.15

###

Assay: Volume of distribution at steady state in mouse at 10 mg/kg, iv
Format: ADME, organism-based
Design: dose 10 mg/kg, route intravenous
Conditions: in vivo, read-out: Vdss
endpoint-name: Vd (L/kg)
Give just the number in L/kg; leave the unit off.

O=C(CCCCCNC(=O)NC(=O)c1ccccc1)NO 2.16

# input Dear colleague, I am looking for the recorded Vd of the following molecule: O=C(CCCCCCC(=O)Nc1ccccc1)NO
# output 0.81

###

Target: Histone deacetylase 9 (Homo sapiens, UniProt Q9UKV0)
Sequence (Q9UKV0 whole entry): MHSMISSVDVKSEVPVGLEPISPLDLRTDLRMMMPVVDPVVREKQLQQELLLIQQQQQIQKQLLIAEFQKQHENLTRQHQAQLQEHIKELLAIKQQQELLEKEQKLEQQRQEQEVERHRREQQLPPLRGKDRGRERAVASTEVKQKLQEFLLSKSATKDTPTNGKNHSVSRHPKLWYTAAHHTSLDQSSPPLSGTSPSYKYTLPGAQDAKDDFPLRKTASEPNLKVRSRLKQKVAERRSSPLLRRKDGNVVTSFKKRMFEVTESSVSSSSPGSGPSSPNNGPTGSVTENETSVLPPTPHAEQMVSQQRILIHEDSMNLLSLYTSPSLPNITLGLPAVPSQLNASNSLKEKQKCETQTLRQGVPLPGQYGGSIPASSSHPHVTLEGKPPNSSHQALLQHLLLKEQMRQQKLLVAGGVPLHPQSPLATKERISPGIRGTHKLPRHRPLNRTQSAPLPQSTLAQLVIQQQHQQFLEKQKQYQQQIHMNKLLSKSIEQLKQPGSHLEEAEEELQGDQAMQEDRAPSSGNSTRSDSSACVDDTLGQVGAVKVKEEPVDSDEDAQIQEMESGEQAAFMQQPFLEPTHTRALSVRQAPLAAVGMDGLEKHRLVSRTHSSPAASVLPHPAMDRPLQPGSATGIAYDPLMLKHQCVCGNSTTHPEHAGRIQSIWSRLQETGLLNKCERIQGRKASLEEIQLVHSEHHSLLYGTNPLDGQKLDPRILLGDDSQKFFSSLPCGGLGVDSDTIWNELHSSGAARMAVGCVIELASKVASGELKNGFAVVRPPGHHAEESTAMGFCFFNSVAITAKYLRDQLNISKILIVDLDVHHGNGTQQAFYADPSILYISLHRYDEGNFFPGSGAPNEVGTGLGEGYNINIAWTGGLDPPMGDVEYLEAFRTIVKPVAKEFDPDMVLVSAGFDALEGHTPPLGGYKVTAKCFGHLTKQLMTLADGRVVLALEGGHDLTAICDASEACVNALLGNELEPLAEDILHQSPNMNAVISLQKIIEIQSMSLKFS
endpoint-name: Ki (nM)
Give just the number in nM; leave the unit off.

# input Dear colleague, I am looking for the recorded Ki of the following molecule: O=C(CCCCCNC(=O)NC(=O)c1ccccc1)NO
# output 55

###

Here we list compounds with their recorded IC50 when tested on Histone deacetylase 1 (Homo sapiens, UniProt Q13547).
Sequence (Q13547 whole entry): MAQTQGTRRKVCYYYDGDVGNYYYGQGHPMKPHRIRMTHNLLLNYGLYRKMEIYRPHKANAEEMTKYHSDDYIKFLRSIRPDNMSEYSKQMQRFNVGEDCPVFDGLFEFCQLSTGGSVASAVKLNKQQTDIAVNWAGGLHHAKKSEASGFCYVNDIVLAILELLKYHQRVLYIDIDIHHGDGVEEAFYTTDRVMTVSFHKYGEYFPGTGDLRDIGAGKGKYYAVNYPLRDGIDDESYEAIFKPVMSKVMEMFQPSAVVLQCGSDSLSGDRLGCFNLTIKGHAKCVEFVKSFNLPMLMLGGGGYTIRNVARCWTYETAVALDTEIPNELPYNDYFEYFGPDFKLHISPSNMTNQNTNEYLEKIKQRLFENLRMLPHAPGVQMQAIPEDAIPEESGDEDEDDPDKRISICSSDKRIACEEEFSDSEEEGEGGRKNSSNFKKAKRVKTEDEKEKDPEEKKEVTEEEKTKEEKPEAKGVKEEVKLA
Give just the number in µM; leave the unit off.

O=C(CCCCCNC(=O)NC(=O)c1cccc([N+](=O)[O-])c1)NO 2.8

# context switch: different compound, same IC50
# input Dear colleague, I am looking for the recorded IC50 of the following compound: CN(C)CC(C)(C)Cn1cnc2cc(C(=O)NC(=O)NCCCCCC(=O)NO)ccc21
# output 3.7

###

Here we list molecules with their recorded pIC50 when tested on Histone deacetylase 1 (Homo sapiens, UniProt Q13547).
# pIC50: negative log10 of molar concentration; output just the value

Some molecules with known pIC50 results, for comparison:
O=C(CCCCCNC(=O)NC(=O)c1ccc([N+](=O)[O-])cc1)NO 7.35
O=C(CCCCCCNC(=O)NC(=O)c1ccccc1)NO 6.84
O=C(CCCCCNC(=O)NC(=O)c1ccc(Cl)cc1)NO 7.59

# context switch: different molecule, same pIC50
# input Dear colleague, I am looking for the recorded pIC50 of the following molecule: O=C(CCCCCCN(Cc1ccccn1)C(=O)NC(=O)c1ccccc1)NO
# output 6.26

###

Target: Histone deacetylase 1 (Homo sapiens)
endpoint-name: log10(IC50) (log10 of the value in nM)
A value of 2 here means IC50 of 100 in nM, since values are log10.

# input Dear colleague, I am looking for the recorded log10(IC50) of the following compound: O=C(CCCCCNC(=O)NC(=O)c1ccc(Cl)cc1)NO
# output 3.20

# input And for O=C(CCCCCNC(=O)NC(=O)c1ccc(I)cc1)NO ?
# output 2.94

# input And for O=C(CCCCCN(Cc1ccccc1)C(=O)NC(=O)c1ccccc1)NO ?
# output 3.50

# input And for O=C(CCCCCNC(=O)NC(=O)c1c(Cl)cccc1Cl)NO ?
# output 3.47

# input And for O=C(CCCCCNC(=O)NC(=O)c1ccc(Br)cc1)NO ?
# output 2.94

# input And for O=C(CCCCCNC(=O)NC(=O)c1ccc(N2CCOCC2)c([N+](=O)[O-])c1)NO ?
# output 4.08

# input And for Nc1cc(C(=O)NC(=O)NCCCCCC(=O)NO)ccc1Cl ?
# output 3.10

###

Attribute: IC50
Target: Histone deacetylase 1 (Homo sapiens, UniProt Q13547)
Give just the number in nM; leave the unit off.

Some compounds with known IC50 results, for comparison:
O=C(CCCCCNC(=O)NC(=O)c1ccc(NS(=O)(=O)c2ccccc2)cc1)NO 97
O=C(CCCCCNC(=O)NC(=O)c1ccc2c(c1)ncn2CCc1ccccc1)NO 25
O=C(CCCCCNC(=O)NC(=O)c1cccc([N+](=O)[O-])c1)NO 92
O=C(CCCCCCN(Cc1ccccc1)C(=O)NC(=O)c1ccccc1)NO 1600
O=C(CCCCCNC(=O)NC(=O)c1ccc2c(c1)nc(CCc1ccccc1)n2CCN1CCCC1)NO 34
O=C(CCCCCNC(=O)NC(=O)c1c(Cl)cccc1Cl)NO 185
O=C(CCCCCNC(=O)NC(=O)c1ccc(F)cc1)NO 115
O=C(CCCCCNC(=O)NC(=O)c1ccc(NC(=O)Cc2ccccc2)cc1)NO 44

# input Any idea what IC50 came out for O=C(CCCCCN(Cc1ccccn1)C(=O)NC(=O)c1ccccc1)NO on Histone deacetylase 1 (Homo sapiens, UniProt Q13547)?
# output 245

# input And for CN(C)CC(C)(C)Cn1cnc2cc(C(=O)NC(=O)NCCCCCC(=O)NO)ccc21 ?
# output 20

# input And for O=C(CCCCCN(Cc1ccccc1)C(=O)NC(=O)c1ccccc1)NO ?
# output 355

# input And for O=C(CCCCCN(CCCc1ccccc1)C(=O)NC(=O)c1ccccc1)NO ?
# output 392

# input And for O=C(CCCCCNC(=O)NC(=O)c1cccc(Br)c1)NO ?
# output 60

# input And for O=C(CCCCCNC(=O)NC(=O)c1ccc(-c2cncnc2)cc1)NO ?
# output 26

# input And for O=C(CCCCCNC(=O)NC(=O)c1ccccc1)NO ?
# output 53

# input And for Nc1cc(C(=O)NC(=O)NCCCCCC(=O)NO)ccc1Cl ?
# output 11

# input And for CCN(CC)CCNc1ccc(C(=O)NC(=O)NCCCCCC(=O)NO)cc1[N+](=O)[O-] ?
# output 20
